TARGET UNDER TEST: rat EGFR (rat, UniProt A0ABK0LZB0 35-1214)
METHOD DESCRIPTION: SPR Biacore
MEASURED ATTRIBUTE: Kd (nM)
Expressed in nM, but write only the number.

stdin: // lookup Kd for I1-GS10-E5 pegylated, His-tagged (designed binder, 40 kDa branched PEG on the Cys of the C-terminal Cys tail, also called I1-GS10-E5 (with Peg)) MGVSDVPRDLEVVAATPTSLLISWSARLKVARYYRITYGETGGNSPVQEFTVPKNVYTATISGLKPGVDYTITVYAVTRFRDYQPISINYRTEIDKGSGSGSGSGSGSGSGSGSGSVSDVPRDLEVVAATPTSLLISWWAPVDRYQYYRITYGETGGNSPVQEFTVPRDVYTATISGLKPGVDYTITVYAVTDYKPHADGPHTYHESPISINYRTEIDKPCQHHHHHH
stdout: 3.6
